- subject of test: WNV NS2B-NS3pro (West Nile virus, UniProt P06935)
- Sequence (P06935 1502-1679 limits assumed): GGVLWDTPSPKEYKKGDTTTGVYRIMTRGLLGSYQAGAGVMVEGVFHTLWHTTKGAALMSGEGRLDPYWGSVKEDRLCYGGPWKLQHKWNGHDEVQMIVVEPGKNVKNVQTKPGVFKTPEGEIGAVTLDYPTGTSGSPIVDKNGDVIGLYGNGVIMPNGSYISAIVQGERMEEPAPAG
- Sequence (P06935 1424-1463 partner limits assumed): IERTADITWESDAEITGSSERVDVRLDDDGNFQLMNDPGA
- assay protocol: Steady-state kinetics of inhibitors of WNV NS2B-NS3pro
- Type: biochemical
- measurement parameters: Table 2, WNV NS2B-NS3pro
Structures can show the parent of a compound that is named as a salt.
recorded metric: Mechanism

// solved cases for Mechanism follow
CC(=O)Oc1cc2c(cc1OC(C)=O)[C@@H]1c3ccc(OC(C)=O)c(OC(C)=O)c3OC[C@]1(OC(C)=O)C2 [MS5, Haematoxylin pentaacetate]
Mixed
CCCCC(CC)CNC(=N)NC(=N)NCCCCCCNC(=N)NC(=N)NCC(CC)CCCC (centres unmarked) [MS28, Alexidine hydrochloride, reference compound]
Mixed
CO[C@H]1C[C@H](O[C@@H]2/C(C)=C/C[C@@H]3C[C@@H](C[C@]4(CC[C@H](C)[C@@H](C5CCCCC5)O4)O3)OC(=O)[C@@H]3C=C(C)/C(=N/O)[C@H]4OC/C(=C\C=C\[C@@H]2C)[C@]43O)O[C@@H](C)[C@@H]1O [MS24, Selamectin, reference compound]
Mixed
CC[C@H](C)[C@H]1O[C@]2(CC[C@@H]1C)C[C@@H]1C[C@@H](C/C=C(\C)[C@@H](O[C@H]3C[C@H](OC)[C@@H](O[C@H]4C[C@H](OC)[C@@H](O)[C@H](C)O4)[C@H](C)O3)[C@@H](C)/C=C/C=C3\CO[C@@H]4[C@H](O)C(C)=C[C@@H](C(=O)O1)[C@]34O)O2 [MS21, Ivermectin, reference compound]
Mixed

Next item in the queue.
**Q:** Value lookup for Mechanism; key = Cc1cc(C(C)(C)CC(C)(C)C)ccc1OCCOCC[N+](C)(C)Cc1ccccc1.[Cl-] [MS22, Methylbenzethonium chloride, reference compound]
**A:** Mixed
